Target: T1, APC2543-AA
T1 chain: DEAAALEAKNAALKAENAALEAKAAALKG
Assay: two-hybrid library CCmax;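 also: natural log of median RNA to DNA barcode read ratio; higher means stronger binding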
Settings: mean of both orientations
measured_property: interaction score

Examples from the recorded data:
{"binder": "DEAAALEAEAAALEAKNAALKAKLAAEKG [APC2257-AA]", "interaction score": -1.02}
{"binder": "DEAAALEAENAALEAKLAAEKAENAALEG [APC2474-AA]", "interaction score": -1.61}
{"binder": "DEAAALEAKAAALKAKLAAEKAKNAALKG [APC2375-AA]", "interaction score": -1.57}

(A) DKLAAIKAKLAANKAELAANEAKLAAEKG [APC1987-AA]
(B) DKLAAIKAEAAALEAENAALEAEAAALEG [APC1242-AA]
Query :: Short answer wanted: higher interaction score, A or B ? Lab note: record the label of whichever item you select.
Result :: B
(B: -1.38, A: -2.01)
